Below, each entry is listed alongside its reported yeast fitness.
B1: tRNA (parent)
chain: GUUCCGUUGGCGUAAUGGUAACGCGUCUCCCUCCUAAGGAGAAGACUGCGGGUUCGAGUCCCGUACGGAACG

- Variants of: B1
- protocol: yeast fitness relative to wild type (ratio to wild type); higher = fitter; tRNA-Arg(CCU), competitive growth, 37 C, YPD
Variants at the floor of the assay were thinned out.
Please respond with just the number, no unit label.

Completed entries (count: 8):
>>> print(df.to_string())
   residue_change  measurement_type  obs_value
0  C27U A43C A69C     yeast fitness      0.754
1        U3C G38C     yeast fitness      0.813
2       C34A G41C     yeast fitness      0.757
3        C4U U19C     yeast fitness      0.927
4       C33G C60A     yeast fitness      0.715
5   C5G A42U A70C     yeast fitness      0.681
6  A21G C49U A65C     yeast fitness      0.747
7  A42U G52A C62U     yeast fitness      0.754

Value of yeast fitness reported for the variant G25A U26G is 0.805

Value of yeast fitness reported for the variant G25C G41C is 0.625

Value of yeast fitness reported for the variant C4G C29A A57C is 0.717
